target: Paramecium calmodulin N-domain fragment (CaM_(1-80)) (Paramecium, UniProt P07463 2-81); assay: fluorescence polarisation
Sequence (P07463 2-81): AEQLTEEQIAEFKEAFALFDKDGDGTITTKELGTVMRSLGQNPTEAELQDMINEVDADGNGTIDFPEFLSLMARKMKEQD
pKd: −log10 of the molar value. No end group written: not given here. *: point of attachment. FITC = O=C1OC2(c3ccc(O)cc3Oc3cc(O)ccc32)c2ccc(NC(=S)*)cc21
Measure: pKd

>>> test_result("{FITC}-ARKEIIRNKIRAIGKMARVFSVLR")
5.15

Source: paper PMC3057930
